PT for assorted compounds
molecular target: Thrombin and coagulation factor X (Homo sapiens) (UniProt P00734+P00742); assay: Anticoagulant potency against double prothrombin time; type: functional
Sequence (P00742 whole entry, looked up, other chains not shown): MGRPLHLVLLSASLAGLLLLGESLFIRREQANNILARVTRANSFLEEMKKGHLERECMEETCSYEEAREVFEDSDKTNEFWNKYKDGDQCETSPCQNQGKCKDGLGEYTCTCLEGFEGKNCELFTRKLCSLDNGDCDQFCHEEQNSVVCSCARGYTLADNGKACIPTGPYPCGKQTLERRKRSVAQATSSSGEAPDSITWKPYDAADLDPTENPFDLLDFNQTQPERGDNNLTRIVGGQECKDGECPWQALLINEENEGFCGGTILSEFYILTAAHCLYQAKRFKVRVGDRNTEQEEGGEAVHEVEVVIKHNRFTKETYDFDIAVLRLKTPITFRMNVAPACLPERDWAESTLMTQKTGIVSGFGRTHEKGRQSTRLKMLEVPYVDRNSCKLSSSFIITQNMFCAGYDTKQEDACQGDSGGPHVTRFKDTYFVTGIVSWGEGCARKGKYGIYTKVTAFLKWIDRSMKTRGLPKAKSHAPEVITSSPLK

{"columns": ["Input smiles", "Unit of measurement", "PT"],
 "data": [
  ["COc1ccc(C(=O)Nc2ccccc2NC(=O)OCC2CCN(c3ccncc3)CC2)cc1", "µM", 1.9],
  ["O=C(Nc1ccccc1NC(=O)c1cccc(F)c1)OCC1CCN(c2ccncc2)CC1", "µM", 17],
  ["O=C(Nc1ccccc1NC(=O)c1ccc2cc[nH]c2c1)OCC1CCN(c2ccncc2)CC1", "µM", 1.6],
  ["O=C(Nc1ccccc1NC(=O)c1ccc(Cl)s1)OCC1CCN(c2ccncc2)CC1", "µM", 2.6],
  ["CC(C)(C)c1ccc(C(=O)Nc2ccccc2NC(=O)c2cccc(C(=N)N)c2)cc1", "µM", 0.9],
  ["O=C(Nc1ccccc1NC(=O)c1cccc(Cl)c1Cl)OCC1CCN(c2ccncc2)CC1", "µM", 5],
  ["COc1cccc(C(=O)Nc2ccccc2NC(=O)OCC2CCN(c3ccncc3)CC2)c1", "µM", 10],
  ["Cc1ccc(C(=O)Nc2ccccc2NC(=O)OCC2CCN(c3ccncc3)CC2)cc1F", "µM", 7],
  ["O=C(Nc1ccccc1NC(=O)c1ccc(Br)cc1)OCC1CCN(c2ccncc2)CC1", "µM", 1.8]
]}
